- assayed system: UniProt P04585
- procedure summary: HIV protease screening assay (fluorescently labeled biotinylated substrate, streptavidin beads), percent inhibition
- Assay type: biochemical
- condition set: 10 μM (Table 7); read-out: PROTEASE INHIBITION
endpoint label: inhibition at 10 µM

COc1ccc(/C=C/C(O)c2cnc3sc4c(n23)CCCCC4)cc1 (centres unmarked)
42%
CN(C)c1ccc(/C=C/C(O)c2cnc3sc4c(n23)CCCCC4)cc1 (centres unmarked)
24%
OC(/C=C/c1cccc(F)c1)c1cnc2sc3c(n12)CCCCC3 (centres unmarked)
66%
OC(/C=C/c1ccco1)c1cnc2sc3c(n12)CCCCC3 (centres unmarked)
98%
OC(/C=C/c1ccc(F)cc1)c1cnc2sc3c(n12)CCCCC3 (centres unmarked)
21%

----------
- assayed system: HIV-1 protease (Human immunodeficiency virus type 1 group M subtype B)
- procedure summary: Determination of Ki values, HIV-1 protease
- Assay type: biochemical
- condition set: Table 4; read-out: Protease Inhibition, Ki
Examples of molecules with documented Ki follow.
endpoint label: Ki (nM)

OC(CCCCc1ccccc1)c1cnc2sc3c(n12)CCCCC3 (stereo not shown)
227
OC(CCc1ccccc1)c1cnc2sc3c(n12)CCCC3 (stereo not shown)
68
OC(CCc1ccccc1)c1cnc2sc3c(n12)CCCCC3 (stereo not shown)
57
OC(CCc1ccccc1)c1cnc2sc3c(n12)CCCCCC3 (stereo not shown)
72

----------
- assayed system: HIV-1 protease (Human immunodeficiency virus type 1 group M subtype B)
- procedure summary: HIV protease screening assay (fluorescently labeled biotinylated substrate, streptavidin beads), percent inhibition
- Type: biochemical
- condition set: 1.1 μM (Table 6); read-out: PROTEASE INHIBITION
Examples of compounds with documented inhibition at 1.1 µM follow.
endpoint label: inhibition at 1.1 µM (%)

OC(CCc1ccco1)c1cnc2sc3c(n12)CCCCC3 (stereo not shown)
54
OC(CCc1cccc(Br)c1)c1cnc2sc3c(n12)CCCCC3 (stereo not shown)
4.8
OC(CCc1cc(F)cc(F)c1)c1cnc2sc3c(n12)CCCCC3 (stereo not shown)
64
OC(CCc1cccc(F)c1F)c1cnc2sc3c(n12)CCCCC3 (stereo not shown)
58
OC(CCc1cccc(F)c1)c1cnc2sc3c(n12)CCCCC3 (stereo not shown)
35
COc1ccc(CCC(O)c2cnc3sc4c(n23)CCCCC4)cc1 (stereo not shown)
63
OC(CCc1cccc(Cl)c1)c1cnc2sc3c(n12)CCCCC3 (stereo not shown)
55
OC(CCc1ccc(F)cc1)c1cnc2sc3c(n12)CCCCC3 (stereo not shown)
53
OC(CCc1ccc2ccccc2c1)c1cnc2sc3c(n12)CCCCC3 (stereo not shown)
51
CN(C)c1ccc(CCC(O)c2cnc3sc4c(n23)CCCCC4)cc1 (stereo not shown)
24

----------
Examples of molecules with documented inhibition at 1.1 µM follow.
- assayed system: HIV-1 protease (Human immunodeficiency virus type 1 group M subtype B, UniProt P04585)
- procedure summary: HIV protease screening assay (fluorescently labeled biotinylated substrate, streptavidin beads), percent inhibition
- Type: biochemical
- condition set: read-out: Protease Inhibition, % Inhibition
endpoint label: inhibition at 1.1 µM (%)

OC(CCc1ccccc1)c1cnc2sc3c(n12)CCCCCC3 (stereo not shown)
62
OC(CCc1ccccc1)c1cnc2sc3c(n12)CCCC3 (stereo not shown)
73
OC(CCc1ccccc1)c1cnc2sc3c(n12)CCCCC3 (stereo not shown)
57
OC(CCCCc1ccccc1)c1cnc2sc3c(n12)CCCCC3 (stereo not shown)
54
